- system under test: FABP5 (Homo sapiens)
- Construct: purchased Sigma Aldrich
- Sequence (Q01469 whole entry): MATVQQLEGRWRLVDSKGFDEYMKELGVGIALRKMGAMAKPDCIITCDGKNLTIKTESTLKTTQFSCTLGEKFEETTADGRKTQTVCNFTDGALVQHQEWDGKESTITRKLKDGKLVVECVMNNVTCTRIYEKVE
- assay text: CW EPR spectra and spectral simulations of spin-probed fatty acids with FABP5
- Assay type: binding
- condition context: 37 °C, 50 μM FABP5, 20 μM spin probe; read-out: KD,T,50μM (calculated, totally bound)
parameter: Kd (µM)

CCCCCCCCCCCCCC1(CCCC(=O)O)OCC(C)(C)N1[O] (centres unmarked)	5.82
CCC1(CCCCCCCCCCCCCCC(=O)O)OCC(C)(C)N1[O] (centres unmarked)	5.87

###

- system under test: FABP3 (Homo sapiens)
- Construct: purchased Sigma Aldrich
- assay text: CW EPR spectra and spectral simulations of spin-probed fatty acids with FABP3
- Type: binding
- condition context: read-out: KD,T,50′ (fit), apparent KD read at 50% totally bound; 37 °C, 20 μM spin probe, EPR binding curve
parameter: Kd (µM)

CCC1(CCCCCCCCCCCCCCC(=O)O)OCC(C)(C)N1[O] (centres unmarked)	10.6
CCCCCCCCCCCCCC1(CCCC(=O)O)OCC(C)(C)N1[O] (centres unmarked)	9.6

###

- system under test: FABP3 (Homo sapiens, UniProt P05413)
- Construct: purchased Sigma Aldrich
- Sequence (P05413 whole entry): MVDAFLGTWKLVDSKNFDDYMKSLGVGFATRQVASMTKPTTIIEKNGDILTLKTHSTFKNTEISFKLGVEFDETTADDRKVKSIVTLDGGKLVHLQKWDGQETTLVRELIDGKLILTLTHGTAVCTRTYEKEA
- assay text: CW EPR spectra and spectral simulations of spin-probed fatty acids with FABP3
- Type: binding
- condition context: 37 °C, 50 μM FABP3, 20 μM spin probe; read-out: KD,T,50μM (calculated, totally bound)
parameter: Kd (nM)

I = CCCCCCCCCCCCCC1(CCCC(=O)O)OCC(C)(C)N1[O] (centres unmarked) [5-DSA, 5-DOXYL stearic acid]
II = CCC1(CCCCCCCCCCCCCCC(=O)O)OCC(C)(C)N1[O] (centres unmarked) [16-DSA, 16-DOXYL stearic acid]
Query string: Hello, I am sorting some records. Could you say if I or II has the smaller Kd value? Refer to your chosen item by its label in the answer.
Result string: II

Ref: paper PMC11231610
